Reported Inhibition at 100 μM values for a set of compounds
test system: Botrytis cinerea (B05.10); assay: Resazurin antifungal assay of 180 alpha-factor peptide variants towards Botrytis (Example 2); format: cell-based; conditions: % inhibition of fungal growth, Botrytis conidia, peptide 100 μM, resazurin
Peptide text beside a SMILES is read from it.

Some compounds with recorded Inhibition at 100 μM:
CSCC[C@H](NC(=O)[C@@H]1CCCN1C(=O)[C@H](CCC(N)=O)NC(=O)CNC(=O)[C@@H]1CCCN1C(=O)[C@H](CCCCN)NC(=O)[C@H](Cc1ccccc1)NC(=O)[C@H](CC(N)=O)NC(=O)[C@H](CC(C)C)NC(=O)[C@H](CC(C)C)NC(=O)[C@H](Cc1c[nH]cn1)NC(=O)[C@@H]1CCCN1)C(=O)N[C@@H](Cc1ccc(O)cc1)C(=O)O [compound 41] (H-PHLLNFKPGQPMY-OH; N-terminus and C-terminus assumed) = <90%
CSCC[C@H](NC(=O)[C@H](CO)NC(=O)[C@H](CCC(N)=O)NC(=O)CNC(=O)[C@@H]1CCCN1C(=O)[C@H](CCCCN)NC(=O)[C@H](CC(C)C)NC(=O)[C@H](CCCNC(=N)N)NC(=O)[C@H](CC(C)C)NC(=O)[C@H](Cc1ccc(O)cc1)NC(=O)[C@H](Cc1c[nH]cn1)NC(=O)[C@@H](N)Cc1c[nH]c2ccccc12)C(=O)N[C@@H](Cc1ccc(O)cc1)C(=O)O [compound 70] (H-WHYLRLKPGQSMY-OH; N-terminus and C-terminus assumed) = 100%

Let's switch to this compound now.
In one line, give reported Inhibition at 100 μM of the entry CSCC[C@H](NC(=O)[C@@H]1CCCN1C(=O)[C@H](CCC(N)=O)NC(=O)CNC(=O)[C@@H]1CCCN1C(=O)[C@H](CCCCN)NC(=O)[C@H](Cc1ccccc1)NC(=O)[C@H](CC(N)=O)NC(=O)[C@H](CC(C)C)NC(=O)[C@H](Cc1ccc(O)cc1)NC(=O)[C@H](Cc1c[nH]cn1)NC(=O)[C@@H](N)CCCCN)C(=O)N[C@@H](Cc1ccc(O)cc1)C(=O)O [compound 24] (H-KHYLNFKPGQPMY-OH; N-terminus and C-terminus assumed) .
100%

---

test system: Botrytis cinerea (B05.10); assay: Resazurin antifungal assay of 180 alpha-factor peptide variants towards Botrytis (Example 2); assay type: cell-based; settings: % inhibition of fungal growth, Botrytis conidia, peptide 15 μM, resazurin
Peptide text beside a SMILES is read from it.
measured_metric: Inhibition at 15 μM

Guide cases for Inhibition at 15 μM, answers given:
CC[C@H](C)[C@H](NC(=O)[C@H](CCCNC(=N)N)NC(=O)[C@@H](NC(=O)[C@H](Cc1c[nH]c2ccccc12)NC(=O)[C@H](Cc1c[nH]cn1)NC(=O)[C@@H](N)Cc1c[nH]c2ccccc12)C(C)C)C(=O)N[C@@H](Cc1c[nH]c2ccccc12)C(=O)N1CCC[C@H]1C(=O)NCC(=O)N[C@@H](CCC(N)=O)C(=O)N1CCC[C@H]1C(=O)N[C@@H](CCSC)C(=O)N[C@@H](Cc1ccc(O)cc1)C(=O)O [compound 51] (H-WHWVRIWPGQPMY-OH; N-terminus and C-terminus assumed) = <90%
CSCC[C@H](NC(=O)[C@@H]1CCCN1C(=O)[C@H](CCC(N)=O)NC(=O)CNC(=O)[C@H](C)NC(=O)[C@H](CCCNC(=N)N)NC(=O)[C@H](CC(C)C)NC(=O)[C@H](CCCNC(=N)N)NC(=O)CNC(=O)[C@H](Cc1c[nH]c2ccccc12)NC(=O)[C@H](Cc1c[nH]cn1)NC(=O)[C@@H](N)CCCCN)C(=O)N[C@@H](Cc1ccc(O)cc1)C(=O)O [compound 68] (H-KHWGRLRAGQPMY-OH; N-terminus and C-terminus assumed) = 99.23%

Output measured Inhibition at 15 μM for this item: CC[C@H](C)[C@H](NC(=O)[C@H](Cc1c[nH]c2ccccc12)NC(=O)[C@H](Cc1c[nH]cn1)NC(=O)[C@@H](N)CCCCN)C(=O)N[C@H](C(=O)N[C@@H](CC(C)C)C(=O)N[C@@H](CCCCN)C(=O)N[C@@H](CO)C(=O)NCC(=O)N[C@@H](CCSC)C(=O)N1CCC[C@H]1C(=O)N[C@@H](CCSC)C(=O)N[C@@H](Cc1ccc(O)cc1)C(=O)O)[C@@H](C)O [compound 59] (H-KHWITLKSGMPMY-OH; N-terminus and C-terminus assumed)
<90%

Look up and report measured Inhibition at 15 μM for this entry: CSCC[C@H](NC(=O)CNC(=O)[C@H](CO)NC(=O)CNC(=O)[C@@H]1CCCN1C(=O)[C@H](CCCCN)NC(=O)[C@H](CC(C)C)NC(=O)[C@H](CCCNC(=N)N)NC(=O)[C@H](CC(C)C)NC(=O)[C@H](Cc1ccc(O)cc1)NC(=O)[C@H](CCCNC(=N)N)NC(=O)[C@@H](N)Cc1c[nH]c2ccccc12)C(=O)N[C@@H](Cc1ccc(O)cc1)C(=O)O [compound 55] (H-WRYLRLKPGSGMY-OH; N-terminus and C-terminus assumed)
<90%

Supply recorded Inhibition at 15 μM for CSCC[C@H](NC(=O)[C@@H]1CCCN1C(=O)[C@H](CCC(N)=O)NC(=O)CNC(=O)[C@H](CCCNC(=N)N)NC(=O)[C@H](CCCCN)NC(=O)[C@H](CC(C)C)NC(=O)[C@H](CCCCN)NC(=O)[C@H](CC(C)C)NC(=O)[C@H](CO)NC(=O)[C@H](Cc1c[nH]cn1)NC(=O)[C@@H](N)Cc1c[nH]c2ccccc12)C(=O)N[C@@H](Cc1ccc(O)cc1)C(=O)O [compound 56] (H-WHSLKLKRGQPMY-OH; N-terminus and C-terminus assumed) here.
<90%
